These measurements were taken from patent US20220023281A1.

TESTED_SYSTEM: AM2 receptor-expressing cells (1321N1 cells transfected with CALCRL+RAMP3) (Homo sapiens, UniProt O60896+Q16602)
Construct: host or cells: 1321N1 cells
Sequence (Q16602 23-461): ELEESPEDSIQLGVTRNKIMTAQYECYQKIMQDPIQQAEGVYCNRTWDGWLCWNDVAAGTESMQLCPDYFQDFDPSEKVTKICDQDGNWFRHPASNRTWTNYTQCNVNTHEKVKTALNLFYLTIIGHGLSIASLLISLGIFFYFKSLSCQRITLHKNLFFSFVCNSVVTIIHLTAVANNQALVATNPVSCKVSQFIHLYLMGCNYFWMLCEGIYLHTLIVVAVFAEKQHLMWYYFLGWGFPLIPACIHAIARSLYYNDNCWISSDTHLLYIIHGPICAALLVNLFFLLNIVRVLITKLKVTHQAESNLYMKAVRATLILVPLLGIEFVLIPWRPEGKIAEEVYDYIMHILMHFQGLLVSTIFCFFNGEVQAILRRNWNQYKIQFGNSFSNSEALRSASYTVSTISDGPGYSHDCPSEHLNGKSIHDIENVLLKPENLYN
Sequence (O60896 24-148): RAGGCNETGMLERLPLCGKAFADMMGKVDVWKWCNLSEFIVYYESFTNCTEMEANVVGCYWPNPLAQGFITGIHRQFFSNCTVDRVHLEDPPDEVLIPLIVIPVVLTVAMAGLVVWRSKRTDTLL
TEST_DESCRIPTION: AM2 receptor inhibition, LANCE cAMP agonist-antagonist competition assay (AM2 D2 protocol)
Type: cell-based
REPORTED_CONDITIONS: inhibition of AM induced cAMP in 1321N1 cells expressing CALCRL+RAMP3; read-out: AM2 D2 protocol: pIC50 (converted)
MEASUREMENT_TYPE: IC50 (nM)

These recorded examples may help you get a feel for the data.
# MOLECULE, IC50 / nM
rows = [
    ("COC(C)(C)C(=O)N(CC(=O)Nc1ccc2c(c1)C[C@@]1(C2)C(=O)Nc2ncccc21)[C@H]1CCCNC1 [Example 11]", 85.1),
    ("CC(C)(C)C(=O)N(CC(=O)Nc1ccc2c(c1)C[C@@]1(C2)C(=O)Nc2ncccc21)C1CCC2CCC1N2 (single isomer, unassigned) [Example 31B]", 200),
]

1: CC1(C(=O)N(CC(=O)Nc2ccc3c(c2)C[C@@]2(C3)C(=O)Nc3ncccc32)[C@H]2CCCNC2)CCC1 [Example 8]
2: CC1(C(=O)N(CC(=O)Nc2ccc3c(c2)C[C@@]2(C3)C(=O)Nc3ncccc32)[C@H]2CCCNC2)CCN(C(=O)N2CCCC2)CC1 [Example 21]
3: CC(C)(C)C(=O)N(CC(=O)Nc1ccc2c(c1)CC1(C2)C(=O)Nc2ncccc21)C1CCCNCC1 (stereo not shown) [Example 26]
4: CC(=O)N1CCN(C(=O)N(CC(=O)Nc2ccc3c(c2)C[C@@]2(C3)C(=O)Nc3ncccc32)[C@H]2CCCNC2)CC1 [Example 23]
5: CC(C)(C)C(=O)N(CC(=O)Nc1ccc2c(c1)CC1(C2)C(=O)Nc2ncccc21)C1CCCNC1 (stereo not shown) [Example 1]
## Task Rank order required: IC50, descending. Give the labels in the order specified.
## Result 4, 3, 1, 2, 5
(4: 2880 nM, 3: 479 nM, 1: 145 nM, 2: 27.5 nM, 5: 14.5 nM)
